test: reduced ATP signal of yeast carrying P. falciparum Hsp90 – S. cerevisiae, BacTiter-Glo luminescence, single point, set 2, antimalarial PfHsp90 inhibitor project, primary screen (AID 504621);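 further: yeast relying on Plasmodium falciparum Hsp90 in place of its own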; details: S. cerevisiae expressing PfHsp90, growth, 48 h, at 9.4 µM, yeast lacking PDR1 and PDR3 efflux regulators
Out of some 310,000 compounds screened, about 970 (0.31%) were called active.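 How the source made its calls: active means every replicate shows inhibition above about 80%, whatever the replicate mean (limit read from the data); inconclusive means mean inhibition reaches the set limit but some replicate falls short; inactive means the rest.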 For the sample, actives were picked, then their nearest neighbours and some compounds at random.
Lab note: assign the record to one of active, inactive

COC(=O)/C=C\C(=O)Nc1cccc([N+](=O)[O-])c1	active
C#CCOCCOCCOCCNc1nc(N2CCOCC2)nc(N2CCN(C(=O)[C@H](Cc3ccc(O)cc3)n3cc(CCO)nn3)CC2)n1	inactive
O=C(/C=C/c1ccc(Cl)c([N+](=O)[O-])c1)c1cccnc1	active
FC(F)(F)c1ccc(-c2cccc3c2C2CC3CCN2Cc2ccccc2)cc1 (stereo unspecified)	inactive
O=C(NN=Cc1ccccc1O)NN=Cc1ccccc1O	inactive

Kindly consider the entry below.
GET /call?item= `C[C@@H]1C[C@@H]2O[C@H]2/C=C\C=C\C(=O)Cc2c(Cl)c(O)cc(O)c2C(=O)O1` returns the recorded outcome of this test. active
